Every entry's value here was drawn from patent US6407247B1.

# procedureSummary: UV absorption of the compounds of Table 2 (absorption maximum and specific extinction)
# Assay type: physicochemical
# measurementSetup: specific extinction at λmax, Table 2
Note: every record was labeled by where its E^11 sits among bottom bin: < 800; middle bin: ≥ 800 and < 1000; top bin: ≥ 1000

Solved entries:
>>> assignedlabel("CC(C)Oc1cccc(NC=C(C#N)C(=O)C(C)(C)C)c1")
"middle bin"
>>> assignedlabel("CCCCOC(=O)c1ccccc1NC=C(C#N)C(=O)C(C)(C)C")
"middle bin"

(Q) Kindly identify the class of `CC(C)c1ccc(NC=C(C#N)C(=O)C(C)(C)C)cc1` .
(A) middle bin

(Q) Kindly identify the class of CCCCC(CC)COC(=O)C(C#N)=CNc1cc(OC)ccc1OC (centres unmarked) .
(A) bottom bin

(Q) Kindly identify the class of CCCCC(CC)COC(=O)c1ccc(NC=C(C#N)C(=O)c2ccccc2)cc1 (centres unmarked) .
(A) middle bin

(Q) Kindly identify the class of `CC(C)COC(=O)c1ccccc1NC=C(C#N)C(=O)C(C)(C)C` .
(A) middle bin

(Q) Kindly identify the class of `COc1cccc(NC=C(C(C)=O)C(C)=O)c1` .
(A) top bin

(Q) Kindly identify the class of `CC(C)(C)C(=O)C(C#N)=CNc1ccccc1C(=O)O` .
(A) middle bin

(Q) Kindly identify the class of CCCCC(CC)COC(=O)c1ccccc1NC=C(C(=O)OCC)C(=O)OCC (centres unmarked) .
(A) bottom bin

(Q) Kindly identify the class of `COc1ccc(OC)c(NC=C(C#N)C(=O)C(C)(C)C)c1` .
(A) bottom bin

(Q) Kindly identify the class of CCCCC(CC)COC(=O)c1ccc(NC=C2C(=O)c3ccccc3C2=O)cc1 (centres unmarked) .
(A) top bin
